These measurements were taken from ChEMBL document CHEMBL1145483.

tested on: Candida albicans; experiment: Antimicrobial activity against Candida albicans P5 after 48 hrs by broth macrodilution method; format: functional; conditions: P5, 48 h
assay endpoint: log10 of MIC (log10 of the value in µg/mL)
Recorded MIC (log10, µg/mL)

// log10 of MIC lookup, key: C[C@H]1CCC/C=C/[C@@H]2C[C@H](O)C[C@H]2[C@H](O)/C=C/C(=O)O1
1.51

---

test system: Candida albicans; test: Antimicrobial activity against Candida albicans SC5314 after 48 hrs by broth macrodilution method; assay type: functional; conditions: SC5314, 48 h
assay endpoint: MIC
Write the figure, then the unit, nothing else.

# compound, MIC
data = [
    ("CCCCNC(=O)n1c(NC(=O)OC)nc2ccccc21 [BENOMYL]", "20 µg/mL"),
    ("CC(=O)N1CCN(c2ccc(OC[C@H]3CO[C@](Cn4ccnc4)(c4ccc(Cl)cc4Cl)O3)cc2)CC1 [KETOCONAZOLE]", "0.064 µg/mL"),
    ("C[C@@H]1[C@H](O)[C@@H](C)/C=C/C=C/C=C/C=C/C=C/C=C/C=C/[C@H](O[C@@H]2O[C@H](C)[C@@H](O)[C@H](N)[C@@H]2O)C[C@@H]2O[C@](O)(C[C@@H](O)C[C@@H](O)[C@H](O)CC[C@@H](O)C[C@@H](O)CC(=O)O[C@H]1C)C[C@H](O)[C@H]2C(=O)O [AMPHOTERICIN B]", "0.125 µg/mL"),
]

// MIC lookup, key: CCC(C)n1ncn(-c2ccc(N3CCN(c4ccc(OC[C@H]5CO[C@](Cn6cncn6)(c6ccc(Cl)cc6Cl)O5)cc4)CC3)cc2)c1=O (some centres undefined) [ITRACONAZOLE]
0.016 µg/mL
